SYSTEM_NAME: VIPR2 (Homo sapiens, UniProt P41587)
Sequence (P41587 24-438): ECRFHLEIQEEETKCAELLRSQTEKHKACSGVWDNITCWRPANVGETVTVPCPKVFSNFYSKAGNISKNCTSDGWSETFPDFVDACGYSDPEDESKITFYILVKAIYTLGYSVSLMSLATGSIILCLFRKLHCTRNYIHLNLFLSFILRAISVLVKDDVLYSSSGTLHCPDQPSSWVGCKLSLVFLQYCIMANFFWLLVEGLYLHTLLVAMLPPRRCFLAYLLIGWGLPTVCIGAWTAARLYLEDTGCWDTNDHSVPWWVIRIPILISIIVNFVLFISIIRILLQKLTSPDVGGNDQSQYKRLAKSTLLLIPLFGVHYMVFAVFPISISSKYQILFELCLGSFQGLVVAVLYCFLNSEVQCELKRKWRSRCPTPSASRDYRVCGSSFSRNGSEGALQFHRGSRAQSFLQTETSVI
PROCEDURE_SUMMARY: Inhibition of VIP-induced β-arrestin recruitment (% Activity Arrestin)
Assay type: cell-based
Design: expressed in transfected cells; host or cells: HEK293 cells transfected with VIPR2 in pCDNA3.1 (as described)
ASSAY_CONTEXT: 0.5 μM, Batch 1
Threshold rule: inhibition at 0.5 µM greater than or equal to 20% is T; below that, F.

{"STRUCTURE_SMILES": "Cc1ccc([N+](=O)[O-])cc1S(=O)(=O)NC[C@@H](O)C[C@@H](Cc1ccccc1)C(=O)N[C@H]1c2ccccc2C[C@H]1O", "SYSTEM_NAME": "VIPR2 (Homo sapiens, UniProt P41587)", "LABEL_VALUE": "F"}
{"STRUCTURE_SMILES": "CC(C)CS(=O)(=O)NC[C@@H](O)C[C@@H](Cc1ccccc1)C(=O)N[C@H]1c2ccccc2C[C@H]1O", "SYSTEM_NAME": "VIPR2 (Homo sapiens, UniProt P41587)", "LABEL_VALUE": "F"}
{"STRUCTURE_SMILES": "CC(C)C(=O)NC[C@@H](O)C[C@@H](Cc1ccccc1)C(=O)N[C@H]1c2ccccc2C[C@H]1O", "SYSTEM_NAME": "VIPR2 (Homo sapiens, UniProt P41587)", "LABEL_VALUE": "F"}
{"STRUCTURE_SMILES": "O=C(NC[C@@H](O)C[C@@H](Cc1ccccc1)C(=O)N[C@H]1c2ccccc2C[C@H]1O)c1ccccn1", "SYSTEM_NAME": "VIPR2 (Homo sapiens, UniProt P41587)", "LABEL_VALUE": "F"}
{"STRUCTURE_SMILES": "CC(C)(C)c1ccc(C(=O)NC[C@@H](O)C[C@@H](Cc2ccccc2)C(=O)N[C@H]2c3ccccc3C[C@H]2O)cc1", "SYSTEM_NAME": "VIPR2 (Homo sapiens, UniProt P41587)", "LABEL_VALUE": "F"}
{"STRUCTURE_SMILES": "O=C(N[C@H]1c2ccccc2C[C@H]1O)[C@H](Cc1ccccc1)C[C@H](O)CNS(=O)(=O)c1cccc([N+](=O)[O-])c1", "SYSTEM_NAME": "VIPR2 (Homo sapiens, UniProt P41587)", "LABEL_VALUE": "T"}
{"STRUCTURE_SMILES": "O=C(NC[C@@H](O)C[C@@H](Cc1ccccc1)C(=O)N[C@H]1c2ccccc2C[C@H]1O)c1ccncc1", "SYSTEM_NAME": "VIPR2 (Homo sapiens, UniProt P41587)", "LABEL_VALUE": "F"}
{"STRUCTURE_SMILES": "O=C(N[C@H]1c2ccccc2C[C@H]1O)[C@H](Cc1ccccc1)C[C@H](O)CNS(=O)(=O)c1ccccc1F", "SYSTEM_NAME": "VIPR2 (Homo sapiens, UniProt P41587)", "LABEL_VALUE": "F"}
{"STRUCTURE_SMILES": "N#Cc1ccc(S(=O)(=O)NC[C@@H](O)C[C@@H](Cc2ccccc2)C(=O)N[C@H]2c3ccccc3C[C@H]2O)cc1", "SYSTEM_NAME": "VIPR2 (Homo sapiens, UniProt P41587)", "LABEL_VALUE": "T"}
{"STRUCTURE_SMILES": "O=C(CCCCl)NC[C@@H](O)C[C@@H](Cc1ccccc1)C(=O)N[C@H]1c2ccccc2C[C@H]1O", "SYSTEM_NAME": "VIPR2 (Homo sapiens, UniProt P41587)", "LABEL_VALUE": "F"}
{"STRUCTURE_SMILES": "O=C(CCN1C(=O)C=CC1=O)NC[C@@H](O)C[C@@H](Cc1ccccc1)C(=O)N[C@H]1c2ccccc2C[C@H]1O", "SYSTEM_NAME": "VIPR2 (Homo sapiens, UniProt P41587)", "LABEL_VALUE": "F"}
{"STRUCTURE_SMILES": "O=C(NC[C@@H](O)C[C@@H](Cc1ccccc1)C(=O)N[C@H]1c2ccccc2C[C@H]1O)C(Cl)Cl", "SYSTEM_NAME": "VIPR2 (Homo sapiens, UniProt P41587)", "LABEL_VALUE": "F"}
